- targetSystem: MRG15 MRG polypeptide (residues 155–323), K201R background (human) (UniProt Q9UBU8)
- assayRemarks: ITC
pKd: −log10 of the molar value.
Rule: pKd of 7 or more gives Fulfilled; anything lower gives Not fulfilled.

binder | assignedClass
DYVQPQLRRPFELLIAAAMERNPTQFQAPNELTCTTALPGSS (domain or fragment) [Pf1 MBD L227A] | Not fulfilled
DYVQPQLRRPFELLIAAAMERNPTQAQLPNELTCTTALPGSS (domain or fragment) [Pf1 MBD F225A] | Not fulfilled
DYVQPQLRRPFEALIAAAMERNPTQFQLPNELTCTTALPGSS (domain or fragment) [Pf1 MBD L212A] | Fulfilled
Pf1 (aa 114–258) (domain or fragment) ELGHVNGLVDKSGKRTTSPSSDTDLLDRSASKTELKAIAHARILERRASRPGTPTSSASTETPTSEQNDVDEDIIDVDEEPVAAEPDYVQPQLRRPFELLIAAAMERNPTQFQLPNELTCTTALPGSSKRRRKEETTGKNVKKTQ | Fulfilled
